- System tested: PAQR6 (Homo sapiens, UniProt Q6TCH4)
- Sequence (Q6TCH4 1-344): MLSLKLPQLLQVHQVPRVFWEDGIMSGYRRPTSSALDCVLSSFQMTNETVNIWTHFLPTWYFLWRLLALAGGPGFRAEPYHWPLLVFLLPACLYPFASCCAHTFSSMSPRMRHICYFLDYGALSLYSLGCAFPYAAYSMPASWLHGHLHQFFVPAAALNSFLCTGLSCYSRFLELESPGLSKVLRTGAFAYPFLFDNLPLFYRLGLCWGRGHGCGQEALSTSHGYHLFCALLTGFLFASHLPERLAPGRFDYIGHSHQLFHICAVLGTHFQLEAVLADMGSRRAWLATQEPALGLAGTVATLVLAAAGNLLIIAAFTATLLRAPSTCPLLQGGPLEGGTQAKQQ
- Assay name: FET3-lacZ reporter repression in yeast expressing PAQR6
- Condition summary: PAQR6, Table 3
Measured attribute: EC50 (nM)
Provide only the numeric value, understood in nM.

Request: // returns reported EC50 for input CC(=O)[C@H]1CC[C@H]2[C@@H]3CCC4=CC(=O)CC[C@]4(C)[C@H]3CC[C@]12C [Progesterone, progesterone]
Response: 2.6

* * *

- System tested: mPRγ (Homo sapiens)
- Construct: Full length and truncated mPRγ and mPRα were expressed in wild type cells grown in 2% galactose from the pGREG536 vector; expressed in transfected cells; host or cells: Saccharomyces cerevisiae (BY4742 wild type; also gpa mutants), GAL1-driven plasmids
- Sequence (Q9NXK6 whole entry, the tested form may be a part): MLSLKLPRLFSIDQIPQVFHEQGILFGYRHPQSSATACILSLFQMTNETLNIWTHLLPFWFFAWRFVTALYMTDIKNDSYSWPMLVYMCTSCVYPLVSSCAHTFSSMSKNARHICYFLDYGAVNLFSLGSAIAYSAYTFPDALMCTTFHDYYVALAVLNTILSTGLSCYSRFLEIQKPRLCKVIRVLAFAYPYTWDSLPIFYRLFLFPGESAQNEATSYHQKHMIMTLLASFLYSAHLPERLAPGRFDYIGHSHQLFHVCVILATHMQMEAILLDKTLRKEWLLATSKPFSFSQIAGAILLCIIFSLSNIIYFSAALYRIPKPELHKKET
- Assay name: FET3-lacZ reporter repression in yeast expressing mPRγ
- Format: cell-based
- Condition summary: mPRγ; progesterone in the presence of 100 nM RU-486
Measured attribute: EC50

Request: // returns reported EC50 for input CC(=O)[C@H]1CC[C@H]2[C@@H]3CCC4=CC(=O)CC[C@]4(C)[C@H]3CC[C@]12C [Progesterone, progesterone]
Response: 15.5 nM

* * *

- System tested: mPRα (Homo sapiens, UniProt Q86WK9)
- Construct: Full length and truncated mPRγ and mPRα were expressed in wild type cells grown in 2% galactose from the pGREG536 vector; expressed in transfected cells; host or cells: Saccharomyces cerevisiae (BY4742 wild type; also gpa mutants), GAL1-driven plasmids (TPI1 promoter in pJK90)
- Sequence (Q86WK9 1-346): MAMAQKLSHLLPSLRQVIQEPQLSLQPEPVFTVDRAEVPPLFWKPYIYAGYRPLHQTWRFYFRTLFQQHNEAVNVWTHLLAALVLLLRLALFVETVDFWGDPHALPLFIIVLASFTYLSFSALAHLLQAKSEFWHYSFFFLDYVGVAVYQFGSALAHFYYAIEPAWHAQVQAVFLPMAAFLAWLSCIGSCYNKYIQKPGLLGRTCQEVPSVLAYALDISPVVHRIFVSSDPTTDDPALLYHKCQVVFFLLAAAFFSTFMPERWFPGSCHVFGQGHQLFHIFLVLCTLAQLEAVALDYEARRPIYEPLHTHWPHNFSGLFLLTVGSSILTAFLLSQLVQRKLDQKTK
- Assay name: cell-based
- Condition summary: EC50, mPRα column of Table 4; ligand alone
Measured attribute: EC50 (nM)
Provide only the numeric value, understood in nM.

Request: // returns reported EC50 for input CC(=O)[C@H]1CC[C@H]2[C@@H]3CCC4=CC(=O)CC[C@]4(C)[C@H]3CC[C@]12C [Progesterone, progesterone]
Response: 2.2
